- conditionLabel: in isopropanol, 313.15 K

smilesString	solubility (mole fraction)
Cc1cc(Cl)cc(C(=O)O)c1N	0.0105

----------
- conditionLabel: in n-butanol, 288.15 K
quantityMeasured: solubility (mole fraction)

smilesString	quantityMeasured	endpointValue
Cc1cc(Cl)cc(C(=O)O)c1N	solubility (mole fraction)	0.00609

----------
- conditionLabel: in methanol, 283.15 K

smilesString	solubility (mole fraction)
Cc1cc(Cl)cc(C(=O)O)c1N	0.00157

----------
- conditionLabel: in ethanol, 288.15 K
quantityMeasured: solubility (mole fraction)

smilesString	endpointValue
Cc1cc(Cl)cc(C(=O)O)c1N	0.00758

----------
- conditionLabel: in n-butanol, 318.15 K
quantityMeasured: solubility (mole fraction)

smilesString	endpointValue
Cc1cc(Cl)cc(C(=O)O)c1N	0.0131

----------
- conditionLabel: in isopropanol, 323.15 K

smilesString	solubility (mole fraction)
Cc1cc(Cl)cc(C(=O)O)c1N	0.0123

----------
- conditionLabel: in n-hexane, 303.15 K
quantityMeasured: solubility (mole fraction)

smilesString	endpointValue
Cc1cc(Cl)cc(C(=O)O)c1N	0.000558

----------
- conditionLabel: in ethyl acetate, 278.15 K
quantityMeasured: solubility (mole fraction)

smilesString	quantityMeasured	endpointValue
Cc1cc(Cl)cc(C(=O)O)c1N	solubility (mole fraction)	0.00636

----------
- conditionLabel: in n-propanol, 298.15 K
quantityMeasured: solubility (mole fraction)

smilesString	quantityMeasured	endpointValue
Cc1cc(Cl)cc(C(=O)O)c1N	solubility (mole fraction)	0.0072

----------
- conditionLabel: in n-hexane, 288.15 K
quantityMeasured: solubility (mole fraction)

smilesString	endpointValue
Cc1cc(Cl)cc(C(=O)O)c1N	0.000245

----------
- conditionLabel: in isopropanol, 303.15 K

smilesString	solubility (mole fraction)
Cc1cc(Cl)cc(C(=O)O)c1N	0.00911

----------
- conditionLabel: in acetone, 313.15 K

smilesString	solubility (mole fraction)
Cc1cc(Cl)cc(C(=O)O)c1N	0.0315

----------
- conditionLabel: in n-hexane, 313.15 K
quantityMeasured: solubility (mole fraction)

smilesString	endpointValue
Cc1cc(Cl)cc(C(=O)O)c1N	0.000821

----------
- conditionLabel: in ethyl acetate, 283.15 K
quantityMeasured: solubility (mole fraction)

smilesString	quantityMeasured	endpointValue
Cc1cc(Cl)cc(C(=O)O)c1N	solubility (mole fraction)	0.0067

----------
- conditionLabel: in n-propanol, 323.15 K

smilesString	solubility (mole fraction)
Cc1cc(Cl)cc(C(=O)O)c1N	0.0153

----------
- conditionLabel: in n-propanol, 293.15 K

smilesString	solubility (mole fraction)
Cc1cc(Cl)cc(C(=O)O)c1N	0.00646

----------
- conditionLabel: in acetone, 318.15 K
quantityMeasured: solubility (mole fraction)

smilesString	endpointValue
Cc1cc(Cl)cc(C(=O)O)c1N	0.0371

----------
- conditionLabel: in isopropanol, 318.15 K

smilesString	solubility (mole fraction)
Cc1cc(Cl)cc(C(=O)O)c1N	0.0114

----------
- conditionLabel: in methanol, 323.15 K
quantityMeasured: solubility (mole fraction)

smilesString	quantityMeasured	endpointValue
Cc1cc(Cl)cc(C(=O)O)c1N	solubility (mole fraction)	0.00815

----------
- conditionLabel: in n-butanol, 308.15 K
quantityMeasured: solubility (mole fraction)

smilesString	quantityMeasured	endpointValue
Cc1cc(Cl)cc(C(=O)O)c1N	solubility (mole fraction)	0.00931
